# TARGET UNDER TEST: T1, Desmoglein 2 (DSG2) on cells (human, UniProt Q14126 50-1118)
# T1 sequence (looked up): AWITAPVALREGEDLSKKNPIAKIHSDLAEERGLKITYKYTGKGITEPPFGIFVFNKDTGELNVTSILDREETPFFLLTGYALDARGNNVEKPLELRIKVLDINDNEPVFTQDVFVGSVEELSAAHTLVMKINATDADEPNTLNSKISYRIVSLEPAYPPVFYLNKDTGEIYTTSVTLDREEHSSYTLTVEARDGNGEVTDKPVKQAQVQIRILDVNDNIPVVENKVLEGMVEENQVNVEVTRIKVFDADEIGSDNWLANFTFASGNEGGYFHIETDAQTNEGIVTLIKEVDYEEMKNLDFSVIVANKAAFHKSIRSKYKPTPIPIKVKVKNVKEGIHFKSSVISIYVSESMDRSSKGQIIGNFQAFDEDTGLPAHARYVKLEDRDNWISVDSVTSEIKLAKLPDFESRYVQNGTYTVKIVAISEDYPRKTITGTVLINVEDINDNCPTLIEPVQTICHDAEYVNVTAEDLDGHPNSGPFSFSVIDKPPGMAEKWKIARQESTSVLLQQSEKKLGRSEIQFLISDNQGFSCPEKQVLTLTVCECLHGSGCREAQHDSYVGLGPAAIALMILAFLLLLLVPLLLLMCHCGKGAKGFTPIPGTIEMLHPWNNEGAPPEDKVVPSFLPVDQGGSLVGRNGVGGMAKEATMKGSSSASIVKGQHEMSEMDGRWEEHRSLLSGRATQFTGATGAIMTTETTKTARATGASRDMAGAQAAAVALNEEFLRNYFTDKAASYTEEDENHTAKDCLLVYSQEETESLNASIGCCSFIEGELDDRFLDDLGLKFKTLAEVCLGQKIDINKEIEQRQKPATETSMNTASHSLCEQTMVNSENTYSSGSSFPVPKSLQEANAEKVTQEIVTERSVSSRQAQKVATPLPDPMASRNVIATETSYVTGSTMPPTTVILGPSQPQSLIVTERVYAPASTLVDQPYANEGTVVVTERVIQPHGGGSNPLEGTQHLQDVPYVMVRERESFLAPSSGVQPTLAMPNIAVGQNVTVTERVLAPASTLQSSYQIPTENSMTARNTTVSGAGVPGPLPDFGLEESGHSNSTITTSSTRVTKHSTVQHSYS
# EXPERIMENT SUMMARY: cell-based or functional assay
PROPERTY NAME: Inhibition of infection in the presence of dimeric knob (JO-1 = 100%)

Respectfully, I request Inhibition of infection in the presence of dimeric knob (JO-1 = 100%) for each entry included below.
1. dimeric Ad3 fiber knob mutant L296R (ligand, JO-1 format) MKVSALKEKVSALKEKVSALKEKVSALKEKVSALKEGSGGGSGGGSGGGSNSIALKNNTLWTGPKPEANCIIEYGKQNPDSKLTLILVKNGGIVNGYVTLMGASDYVNTLFKNKNVSINVELYFDATGHILPDSSSLKTDLELKYKQTADFSARGFMPSTTAYPFVLPNAGTHNENYIFGQCYYKASDGALFPLEVTVMLNKRLPDSRTSYVMTFLWSLNAGRAPETTQATLITSPFTFSYIREDD
2. dimeric Ad3 fiber knob mutant E299V (ligand, JO-1 format) MKVSALKEKVSALKEKVSALKEKVSALKEKVSALKEGSGGGSGGGSGGGSNSIALKNNTLWTGPKPEANCIIEYGKQNPDSKLTLILVKNGGIVNGYVTLMGASDYVNTLFKNKNVSINVELYFDATGHILPDSSSLKTDLELKYKQTADFSARGFMPSTTAYPFVLPNAGTHNENYIFGQCYYKASDGALFPLEVTVMLNKRLPDSRTSYVMTFLWSLNAGLAPVTTQATLITSPFTFSYIREDD

Given back:
["5.1 % (JO-1 = 100%)", "50.7 % (JO-1 = 100%)"]

Data provenance is patent US20190092819A1.
